These entries and their values trace back to patent US20220289708A1.

# Tested on: Pharbitis purpurea
# Method Notes: Post-emergence herbicidal action
# Format: in vivo
# Reported Conditions: application rate 20 g/ha, rated visually after about 3 weeks vs untreated controls
# Protocol: a. Post-Emergence Herbicidal Action and Crop Plant Compatibility Seeds of monocotyledonous and dicotyledonous weeds and crop plants were placed in sandy loam in plastic or wood-fiber pots, covered with soil and cultivated in a greenhouse under controlled growth conditions. 2 to 3 weeks after sowing, the test plants were treated at the one-leaf stage. […]
Measurement Kind: Pharbitis purpurea (efficacy in %)
Answer in %, number only, no unit symbol.

// below: answered molecules
Molecule | Pharbitis purpurea (efficacy in %)
CCOCCOC(=O)COc1ncccc1Oc1cc(-n2c(=O)cc(C(F)(F)F)n(C)c2=O)c(F)cc1Cl [I.15-2] | 100
Cc1c(COC(=O)COc2ncccc2Oc2cc(-n3c(=O)cc(C(F)(F)F)n(C)c3=O)c(F)cc2Cl)cnn1C [I.15-367] | 100
COCCOC(=O)COc1ncc(F)cc1Oc1cc(-n2c(=O)cc(C(F)(F)F)n(C)c2=O)c(F)cc1Cl [I.36-1] | 100
Cn1c(C(F)(F)F)cc(=O)n(-c2cc(Oc3cccnc3OCC(=O)OCC3OCCO3)c(Br)cc2F)c1=O [I.16-424] | 100
CCOCCOC(=O)COc1ncccc1Oc1cc(-n2c(=O)cc(C(F)(F)F)n(C)c2=O)c(F)cc1Br [I.16-2] | 100
CCOC(COC(=O)COc1ncccc1Oc1cc(-n2c(=O)cc(C(F)(F)F)n(C)c2=O)c(F)cc1Cl)OCC [I.15-422] | 100

Just so you know, measured Pharbitis purpurea (efficacy in %) for COCCOCCOC(=O)COc1ncc(F)cc1Oc1cc(-n2c(=O)cc(C(F)(F)F)n(C)c2=O)c(F)cc1Cl [I.36-23] came out at 100

Reported Pharbitis purpurea (efficacy in %) ( CCn1cc(COC(=O)COc2ncccc2Oc2cc(-n3c(=O)cc(C(F)(F)F)n(C)c3=O)c(F)cc2Cl)c(C)n1 [I.15-368] ) = 100

Documented Pharbitis purpurea (efficacy in %) of CCOCCOC(=O)COc1ncccc1Oc1cc(-n2c(=O)cc(C(F)(F)F)n(C)c2=O)c(F)cc1[N+](=O)[O-] [I.14-2] : 100

----------
# Test system: Zea mays
# Method Notes: Pre-emergence crop plant compatibility
# Format: in vivo
# Reported Conditions: application rate 20 g/ha
Recorded Zea mays (efficacy in %) for the following compounds
The answer is to be given in %; state only the numeric part.

Illustrative cases are given below, each with its answer.
Compound | Assayed System | Result Value
Cn1c(C(F)(F)F)cc(=O)n(-c2cc(Oc3cccnc3OCC(=O)OCc3ccccn3)c(Cl)cc2F)c1=O [I.15-286] | Zea mays | 20
COCCOCCOCCOCCOC(=O)COc1ncccc1Oc1cc(-n2c(=O)cc(C(F)(F)F)n(C)c2=O)c(F)cc1Cl [I.15-154] | Zea mays | 0
Cn1c(C(F)(F)F)cc(=O)n(-c2cc(Oc3cccnc3OCC(=O)OCc3cccnn3)c(Cl)cc2F)c1=O [I.15-301] | Zea mays | 0
CC(C#N)COC(=O)COc1ncccc1Oc1cc(-n2c(=O)cc(C(F)(F)F)n(C)c2=O)c(F)cc1Cl (centres unmarked) [I.15-405] | Zea mays | 0

Next up:
Recorded Zea mays (efficacy in %) (compound Cn1c(C(F)(F)F)cc(=O)n(-c2cc(Oc3cccnc3OCC(=O)OCC[Si](C)(C)C)c(Cl)cc2F)c1=O [I.15-211] ): 20
